- METHOD: qHTS of pediatric cancer cell lines to identify multiple opportunities for drug repurposing: Primary screen for NB1643 cells (AID 1347099); note: nearly all actives have a fitted effect of over 50% in size
- COND: NB1643 neuroblastoma viability, CellTiter-Glo luminescence, 48 h; series mostly up to 46 µM
Results filed as inconclusive are left out. Activity calls are given as the source filed them. Calls come from the whole dose curve; as a rule, active = well fitted cell-killing curve with a large enough effect; inconclusive = small, poorly fitted or top-dose-only effect; inactive = no such curve, though single readings can be large or run the other way.
Write down the outcome that applies. Available outcomes: T (active), F (inactive)

Could you please tell me the result logged for Oc1c(I)cc(I)c2cccnc12 in this assay? F

Could you please tell me the result logged for CN(C)C(=S)SC(=S)N(C)C in this assay? T

Could you please tell me the result logged for CCCCc1nc(Cl)c(CO)n1Cc1ccc(-c2ccccc2-c2nn[nH]n2)cc1 in this assay? F

Could you please tell me the result logged for Cc1c(C(C)C)c(=O)n(-c2ccccc2)n1C in this assay? F

Could you please tell me the result logged for Oc1ccc(Cl)cc1Sc1cc(Cl)ccc1O in this assay? T

Could you please tell me the result logged for CC(=O)OCC(=O)[C@@]12OC(C)(C)O[C@@H]1C[C@H]1[C@@H]3C[C@H](F)C4=CC(=O)C=C[C@]4(C)[C@@]3(F)[C@@H](O)C[C@@]12C in this assay? F

Could you please tell me the result logged for Cc1ccc(O)c2ncccc12 in this assay? T

Could you please tell me the result logged for CC(Cc1ccccc1)(NC(=O)CN)c1ccccc1 (stereo not given) in this assay? F

Could you please tell me the result logged for CC(=O)Oc1ccc(C(=C2CCCCC2)c2ccc(OC(C)=O)cc2)cc1 in this assay? F

Could you please tell me the result logged for C[C@@H]1C[C@H]2[C@@H]3CCC4=CC(=O)C=C[C@]4(C)[C@@]3(F)[C@@H](O)C[C@]2(C)[C@H]1C(=O)CO in this assay? F

Could you please tell me the result logged for CC(=O)OCC(=O)[C@@]1(O)[C@H](C)C[C@H]2[C@@H]3CCC4=CC(=O)C=C[C@]4(C)[C@@]3(F)[C@@H](O)C[C@@]21C in this assay? F

Could you please tell me the result logged for C[C@@H](CN(C)C)CN1c2ccccc2Sc2ccccc21 in this assay? F

Could you please tell me the result logged for CCCCCC=CCC=CCCCCCCCC(=O)OCC in this assay? F

Could you please tell me the result logged for Cc1c(C)n(CCN(C)C)c2ccc(C(=O)OCCN(C)C)cc12 in this assay? F

Could you please tell me the result logged for C#C[C@]1(OC(C)=O)CC[C@H]2[C@@H]3CCC4=C[C@@H](OC(C)=O)CC[C@@H]4[C@H]3CC[C@@]21C in this assay? F

Could you please tell me the result logged for CC(=O)Oc1ccc(C(c2ccc(OC(C)=O)cc2)c2ccccn2)cc1 in this assay? F

Could you please tell me the result logged for CN1CCC(=C2c3ccccc3Sc3ccccc32)CC1 in this assay? F

Could you please tell me the result logged for CCCC(=O)O[C@]1(C(=O)CO)CC[C@H]2[C@@H]3CCC4=CC(=O)CC[C@]4(C)[C@H]3[C@@H](O)C[C@@]21C in this assay? F

Could you please tell me the result logged for C#C[C@]1(O)CC[C@H]2[C@@H]3CCC4=CC(=O)CC[C@@H]4[C@H]3CC[C@@]21C in this assay? F

Could you please tell me the result logged for C[C@]12CCC(=O)C=C1[C@@H]1C[C@@H]1[C@H]1[C@@H]3[C@@H]4C[C@@H]4[C@@]4(CCC(=O)O4)[C@@]3(C)CC[C@@H]12 in this assay? F
